tested on: HCC1419; test: cells; assay type: cell-based; settings: Homo sapiens, 72 h; HCC1419, three-day drug treatment; read-out: gIC50
measured metric: IC50 (nM)
Respond with the bare value in nM.

Consider the compound COc1ncc(-c2ccc3nccc(-c4ccnnc4)c3c2)cc1NS(=O)(=O)c1ccc(F)cc1F and give its measured IC50. 1.5

---

test: in vitro; format: cell-based; settings: human, MCF10F cells (breast epithelium; HER2−; PIK3CA NA), 50% net loss of cells vs time 0, read-out: LC50
measured metric: CC50 at 3 days (nM)
Respond with the bare value in nM.

Consider the compound COc1ncc(-c2ccc3nccc(-c4ccnnc4)c3c2)cc1NS(=O)(=O)c1ccc(F)cc1F and give its measured CC50 at 3 days. 98.7

Origin of the recorded values: patent US20130317037A1
